# solubility annotations
# measurement-description: Aqueous solubility of the compound
# Type: physicochemical
# particulars: buffer
Write it as a number; the unit µg/mL goes unstated.

structure-smiles-string: COc1cnc(-n2ccc(C)n2)c2[nH]cc(C(=O)C(=O)N3CCN(C(=O)c4ccccc4)CC3)c12
solubility [µg/mL]: 17

Qu. // lookup solubility for `CCNC(=O)c1ncn(-c2ncc(OC)c3c(C(=O)C(=O)N4CCN(C(=O)c5ccccc5)CC4)c[nH]c23)n1`
Ans. 58

Qu. I would be grateful if you could share the reported solubility for `COc1cnc(-n2ccc(C)n2)c2[nH]cc(C(=O)C(=O)N3CCN(C(=O)c4ccccc4)[C@H](C)C3)c12` .
Ans. 69

====

# measurement-description: Metabolic stability in rat liver microsomes assessed as parent compound remaining after 10 mins
# Type: ADME, microsome
# particulars: read-out: Stability
In this section, each of the compounds is paired with its reported remaining at 10 min.

Previously resolved entries follow.
structure-smiles-string: COCc1ncn(-c2ncc(OC)c3c(C(=O)C(=O)N4CCN(C(=O)c5ccccc5)CC4)c[nH]c23)n1
remaining at 10 min: 95%
--
structure-smiles-string: COc1cnc(-n2cnc(C)n2)c2[nH]cc(C(=O)C(=O)N3CCN(C(=O)c4ccccc4)[C@@H](C)C3)c12
remaining at 10 min: 95%
--
structure-smiles-string: COc1cnc(-n2cncn2)c2[nH]cc(C(=O)C(=O)N3CCN(C(=O)c4ccccc4)CC3)c12
remaining at 10 min: 97%

Qu. Find the recorded remaining at 10 min belonging to `COc1cnc(-n2cnc(C)n2)c2[nH]cc(C(=O)C(=O)N3CCN(C(=O)c4ccccc4)[C@H](C)C3)c12` and report it.
Ans. 98%

Qu. Record request: remaining at 10 min value, item `COc1cnc(-n2cnc(SC)n2)c2[nH]cc(C(=O)C(=O)N3CCN(C(=O)c4ccccc4)CC3)c12`
Ans. 91%

====

# measurement-description: Permeability in human Caco2 cells
# Type: ADME, cell-based
# particulars: Caco-2, read-out: permeability
// not satisfied strictly below 7 ×10⁻⁶ cm/s in Papp; satisfied otherwise

structure-smiles-string: COc1cnc(-c2cccnc2)c2[nH]cc(C(=O)C(=O)N3CCN(C(=O)c4ccccc4)CC3)c12
category: not satisfied

Qu. Would you say `COc1cnc(-n2cnc(SC)n2)c2[nH]cc(C(=O)C(=O)N3CCN(C(=O)c4ccccc4)CC3)c12` shows Papp at minimum 7 ×10⁻⁶ cm/s?
Ans. not satisfied

Qu. Evaluate `COc1cnc(-n2cccn2)c2[nH]cc(C(=O)C(=O)N3CCN(C(=O)c4ccccc4)CC3)c12` : Papp at minimum 7 ×10⁻⁶ cm/s?
Ans. not satisfied

====

# measurement-description: Permeability in human Caco2 cells
# Format: ADME, cell-based
# particulars: Caco-2, read-out: permeability
parameter: Papp

Illustrative cases are given below, each with its answer.
structure-smiles-string: O=C(C(=O)N1CCN(C(=O)c2ccccc2)CC1)c1c[nH]c2ccccc12
Papp: > 10 ×10⁻⁶ cm/s
--
structure-smiles-string: COc1cnc(-c2cnc(O)cn2)c2[nH]cc(C(=O)C(=O)N3CCN(C(=O)c4ccccc4)CC3)c12
Papp: < 1.5 ×10⁻⁶ cm/s
--
structure-smiles-string: CCN(CC)CCNc1ncn(-c2ncc(OC)c3c(C(=O)C(=O)N4CCN(C(=O)c5ccccc5)CC4)c[nH]c23)n1
Papp: < 1.5 ×10⁻⁶ cm/s
--
structure-smiles-string: COc1cnc(-c2nccs2)c2[nH]cc(C(=O)C(=O)N3CCN(C(=O)c4ccccc4)CC3)c12
Papp: < 1.5 ×10⁻⁶ cm/s

Please examine the following record next.
Qu. Give its Papp value. Item: `COCc1ncn(-c2ncc(OC)c3c(C(=O)C(=O)N4CCN(C(=O)c5ccccc5)CC4)c[nH]c23)n1`
Ans. < 1.5 ×10⁻⁶ cm/s
